Target: Neu5Ac(a2-3)Gal(b1-4)GlcNAc(b1-3)Gal(b1-4)GlcNAc(b1-6)[Gal(b1-3)]GalNAc
Assay: glycan array binding signal (z-score within array); higher = stronger binding
Conditions: glycan notation: IUPAC condensed, linker removed
Many of the other results were omitted from the sample, so the strongest signals are more common in it than they were.
Assign Condition met whenever glycan array binding signal (z-score) does not fall below 1; assign Condition not met whenever it does.

# input Record SSR1 (Sclerotium rolfsii), A0A0M3KL30 (protein) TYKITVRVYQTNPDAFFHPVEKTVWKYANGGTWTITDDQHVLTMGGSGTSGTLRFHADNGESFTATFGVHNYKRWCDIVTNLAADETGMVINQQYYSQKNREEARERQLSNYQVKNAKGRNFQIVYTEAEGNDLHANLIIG ; criterion: glycan array binding signal (z-score) no lower than 1. Met?
# output Condition met

# input // next record Epa11 (Candida glabrata) (protein) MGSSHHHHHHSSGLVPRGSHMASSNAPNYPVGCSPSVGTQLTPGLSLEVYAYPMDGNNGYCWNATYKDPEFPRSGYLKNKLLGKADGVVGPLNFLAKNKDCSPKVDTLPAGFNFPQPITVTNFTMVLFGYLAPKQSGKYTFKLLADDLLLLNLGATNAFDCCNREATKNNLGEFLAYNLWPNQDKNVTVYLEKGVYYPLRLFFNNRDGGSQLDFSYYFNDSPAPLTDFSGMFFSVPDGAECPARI
# output Condition not met

# input // next record LecB LY19 (Pseudomonas aeruginosa) (protein) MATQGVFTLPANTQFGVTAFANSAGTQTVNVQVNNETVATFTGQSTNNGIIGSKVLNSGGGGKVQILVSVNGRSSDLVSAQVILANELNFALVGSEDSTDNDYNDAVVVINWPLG
# output Condition not met

# input Please answer likewise for AidA (Burkholderia cenocepacia) (protein) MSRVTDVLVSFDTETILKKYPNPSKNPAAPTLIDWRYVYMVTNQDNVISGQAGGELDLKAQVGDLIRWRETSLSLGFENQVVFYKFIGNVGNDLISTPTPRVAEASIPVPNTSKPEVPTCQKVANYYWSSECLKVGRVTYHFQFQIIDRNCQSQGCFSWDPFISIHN
# output Condition not met

# input How about F17-L (Escherichia coli) (protein) GPDDYVPSQIAVNTSTLPGVVIGPADAHTYPRVIGELAGTSNQYVFNGGAIALMRGKFTPALPKIGSITYTFHQGNSRDSSDFDIYDIGVSGLGIIIGMAGYWPATPLVPINSSGIYIDPVGANTNPNTYNGATASFGARLFVAFVATGRLPNGYITIPTRQLGTILLEAKRTSLNNKGLTAPVMLNGGRIQVQSQTHHHHHH ?
# output Condition not met

# input Same question, Pwp2 (Candida glabrata) (protein) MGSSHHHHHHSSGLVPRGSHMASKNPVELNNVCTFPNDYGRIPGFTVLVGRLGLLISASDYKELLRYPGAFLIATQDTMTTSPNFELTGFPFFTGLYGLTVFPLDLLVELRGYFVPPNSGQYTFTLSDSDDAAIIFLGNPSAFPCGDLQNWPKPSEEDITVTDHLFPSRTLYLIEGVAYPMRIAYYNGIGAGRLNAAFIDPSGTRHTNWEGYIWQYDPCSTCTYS this time
# output Condition met

# input Try Pwp3 (Candida glabrata) (protein) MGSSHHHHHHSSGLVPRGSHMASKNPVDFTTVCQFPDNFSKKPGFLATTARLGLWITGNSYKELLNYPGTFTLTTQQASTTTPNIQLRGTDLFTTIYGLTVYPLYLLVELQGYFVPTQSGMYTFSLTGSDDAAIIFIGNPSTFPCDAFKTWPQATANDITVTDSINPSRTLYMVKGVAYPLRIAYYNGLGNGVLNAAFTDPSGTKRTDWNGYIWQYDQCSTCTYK next.
# output Condition met
